# experimental.system: furin, P09958;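 also: purified furin at 1:10 enzyme:substrate in 50 mM HEPES pH 7.5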
# Sequence (P09958 whole entry): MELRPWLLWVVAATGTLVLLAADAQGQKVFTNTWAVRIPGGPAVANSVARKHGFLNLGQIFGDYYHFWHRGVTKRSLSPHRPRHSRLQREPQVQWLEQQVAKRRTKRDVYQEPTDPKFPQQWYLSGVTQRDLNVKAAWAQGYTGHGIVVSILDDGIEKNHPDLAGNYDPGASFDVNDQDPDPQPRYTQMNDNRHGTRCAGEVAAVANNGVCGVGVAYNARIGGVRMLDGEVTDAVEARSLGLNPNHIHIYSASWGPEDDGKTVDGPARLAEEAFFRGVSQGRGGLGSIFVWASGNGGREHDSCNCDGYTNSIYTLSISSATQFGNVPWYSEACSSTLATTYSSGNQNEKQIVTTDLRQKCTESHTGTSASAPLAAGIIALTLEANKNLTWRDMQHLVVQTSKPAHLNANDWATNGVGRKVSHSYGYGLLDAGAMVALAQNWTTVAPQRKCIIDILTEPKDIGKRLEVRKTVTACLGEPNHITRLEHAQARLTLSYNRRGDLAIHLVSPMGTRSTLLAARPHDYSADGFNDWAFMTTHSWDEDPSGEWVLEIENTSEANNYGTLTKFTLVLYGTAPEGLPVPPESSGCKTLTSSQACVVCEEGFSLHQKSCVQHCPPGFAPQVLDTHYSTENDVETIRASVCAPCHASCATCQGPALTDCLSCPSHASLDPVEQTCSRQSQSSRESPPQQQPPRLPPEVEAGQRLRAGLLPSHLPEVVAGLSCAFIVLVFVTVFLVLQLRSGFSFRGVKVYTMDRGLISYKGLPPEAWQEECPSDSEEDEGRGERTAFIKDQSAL
# method.notes: furin cleavage Z-score vs untreated control; higher = more cleavage, active = 3.5 or more, inactive = 1 or less, 8 variable residues between constant flanks
# condition.label: 7.5 min
This is one part of the list. No count for the full screen is at hand.
measured.parameter: furin cleavage Z-score
One number for each entry.

Use the examples below as a reference point.
>  <seq>
CAPLTNSRGEAGNASASA [HC1503]

>  <test.value>
-0.174

$$$$
>  <seq>
CAACTTPCSGAGNASASA [HC1943]

>  <test.value>
-1.45

$$$$
>  <seq>
CAIYQCCDLDAGNASASA [HC1490]

>  <test.value>
-1.27

$$$$
>  <seq>
CARASRGGGGAGNASASA [FS-2891]

>  <test.value>
-0.8

$$$$

Hi! Can you tell me furin cleavage Z-score for each of these sequences?
1. CAPRWIWFCLAGNASASA [HC1655]
2. CASRKRSFFRAGNASASA [FS-3137]
3. CANRERSKRDAGNASASA [FS-182]
4. CARPRRPASPAGNASASA [FS-2581]
5. CAMEECSQHRAGNASASA [HC1773]
6. CARATRKIGIAGNASASA [FS-2132]

Response:
[2.54, -0.305, 13.6, 0.54, 0.467, -0.496]

Take each entry in turn and give its furin cleavage Z-score.
1. CARDRRQATEAGNASASA [FS-1692]
2. CARRGPRLGVAGNASASA [HC180]
3. CARPRRGSTAAGNASASA [FS-2743]
4. CALLAPITAYAGNASASA [HC673]

Response:
[3.4, -0.669, 0.592, -3.12]

Where these numbers come from: the supplement of paper PMC3545927
